Kindly supply the reported Kd values for the records listed here.
# assayed_system: N-terminal Xaa-Pro-Lys N-methyltransferase 2 (Homo sapiens, UniProt Q5VVY1)
# Sequence (Q5VVY1 whole entry): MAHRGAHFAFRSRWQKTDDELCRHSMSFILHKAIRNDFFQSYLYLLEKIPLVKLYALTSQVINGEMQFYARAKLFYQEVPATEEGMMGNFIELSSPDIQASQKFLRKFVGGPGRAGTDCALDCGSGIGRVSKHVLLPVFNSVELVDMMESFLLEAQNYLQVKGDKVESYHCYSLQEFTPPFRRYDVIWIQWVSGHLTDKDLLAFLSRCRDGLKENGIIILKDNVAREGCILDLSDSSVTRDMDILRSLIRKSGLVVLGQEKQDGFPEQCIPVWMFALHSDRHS
# procedure_summary: Binding affinity to recombinant human full-length His6-tagged NTMT2 by ITC assay
Where a SMILES comes first, the peptide text is derived from it. The star is where a group is joined. X1 = O=C(Cc1ccc(O)cc1)*
Answers are plain numbers, in µM.

// worked examples, Kd included
compound: N=C(N)NCCC[C@H](NC(=O)[C@H](CCCNC(=N)N)NC(=O)[C@H](CCCNC(=N)N)NC(=O)[C@H](CCC(N)=O)NC(=O)[C@H](CCCNC(=N)N)NC(=O)[C@H](CCCNC(=N)N)NC(=O)[C@H](CCCCN)NC(=O)[C@H](CCCCN)NC(=O)[C@H](CCCNC(=N)N)NC(=O)CNC(=O)[C@H](CCCNC(=N)N)NC(=O)[C@H](CCCCN)NC(=O)[C@@H]1CCCN1C(=O)Cc1ccc(O)cc1)C(N)=O
assayed_system: N-terminal Xaa-Pro-Lys N-methyltransferase 2 (Homo sapiens, UniProt Q5VVY1)
reported: 3.4
--
compound: N=C(N)NCCC[C@H](NC(=O)[C@H](CCCCN)NC(=O)[C@@H]1CCCN1C(=O)Cc1ccc(O)cc1)C(N)=O
assayed_system: N-terminal Xaa-Pro-Lys N-methyltransferase 2 (Homo sapiens, UniProt Q5VVY1)
reported: 3.7

-- ask Given the compound N=C(N)NCCC[C@H](NC(=O)[C@H](CCCNC(=N)N)NC(=O)[C@H](CCCNC(=N)N)NC(=O)[C@H](CCCNC(=N)N)NC(=O)[C@H](CCCNC(=N)N)NC(=O)[C@H](CCCNC(=N)N)NC(=O)[C@H](CCCCN)NC(=O)[C@@H]1CCCN1C(=O)Cc1ccc(O)cc1)C(N)=O (X1-PKRRRRRR-NH2) , what is its reported Kd?
-- reply 1
